# Ki listing for each entry below
- assayed_system: A1B2D1R 5HTBP mutant (Aplysia californica, UniProt Q8WSF8)
- Sequence (Q8WSF8 entry or part of it, change not shown): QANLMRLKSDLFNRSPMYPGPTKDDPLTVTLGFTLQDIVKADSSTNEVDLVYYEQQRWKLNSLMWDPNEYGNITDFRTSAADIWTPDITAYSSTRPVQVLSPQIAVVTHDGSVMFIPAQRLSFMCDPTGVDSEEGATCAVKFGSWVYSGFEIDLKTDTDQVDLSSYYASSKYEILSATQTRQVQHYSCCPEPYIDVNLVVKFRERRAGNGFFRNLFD
- experimental_protocol: Radioligand binding assay with [3H]-granisetron (SPA)
- cond: [3H]-granisetron 1.99 nM; read-out: Ki RLB (A1B2D1R 5HTBP mutant)
- Procedure: The competitive radioligand-binding assay was performed as described by Kesters et al. 2013 [10]. His-tagged A1B2D1R 5HTBP was diluted in buffer (10 mM HEPES/0.05% Tween) to obtain 50 ng binding protein per well. […] The concentration of the radioligand [3H]-granisetron (Perkin-Elmer, Life Science, Groningen, The Netherlands, specific activity ~85 Ci/mmol) was 1.99 nM. After addition of PVT Copper His-Tag SPA beads (final concentration 2 mg/mL), the final well volume was 100 µL. […]

{"compound": "CN1CCN(c2nc3ccccc3nc2Cl)CC1", "Ki [nM]": 2390}
{"compound": "C=CCN1CCc2nc(N)sc2CC1", "Ki [nM]": 930}
{"compound": "Cn1cc(C(=O)C(=O)NC2CN3CCC2CC3)c2ccccc21 (stereo not shown)", "Ki [nM]": 1600}
{"compound": "NC1CCN(c2cccc(Cl)n2)CC1", "Ki [nM]": 39700}

Data provenance: paper PMC4516916
